target: T1, rHuman EGF R/Fc Chimera, CF (R&D Systems Cat#344-ER) (human, UniProt P00533 25-645)
T1 construct: Bought protein; also called epidermal growth factor receptor; Fc part of the bought chimera not given
measurement-protocol: ECL multispot (MSD) assay; antigen spotted on plate, Fab in solution;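 further: purified Fab incubated 1 hour at 20 °C in 1% BSA TBST on antigen-coated wells, detected with TAG antibody, ECL read on Sector Imager 2400, compared to each well's blank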
reported-endpoint: ECL signal
Express your answer as a number followed by its unit.

Problem: // returns reported ECL signal for input Fab VH1-46_IGHD6-6*01_IGHJ1*01 S102A/S103P/S104F (APF) & L6_IGKJ1*01 S30T (Fab, V domains shown, Tested as Fab made in E. coli; The heavy chain vector (Plasmid A) adds CH1 with His and Flag tags, the kappa vector (Plasmid C) adds CL kappa; also called APF / S30T) VH: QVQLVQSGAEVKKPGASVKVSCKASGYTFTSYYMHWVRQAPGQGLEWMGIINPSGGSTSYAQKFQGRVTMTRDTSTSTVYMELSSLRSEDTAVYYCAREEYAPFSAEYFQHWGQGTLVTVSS VL: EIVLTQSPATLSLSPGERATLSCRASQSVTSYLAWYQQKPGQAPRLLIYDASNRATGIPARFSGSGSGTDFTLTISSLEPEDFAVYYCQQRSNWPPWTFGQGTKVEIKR
Result: 274 ECL signal

Just for reference, patent US20120316071A1 is where these values come from.
